// data source = the supplement of paper PMC11451515

System: SEM cells
Experiment: cell viability relative to DMSO control; higher = less cytotoxic
Details: HPLM + 10% dialyzed FBS; 48 h; 0.000781 µM
As shown below, each of these compounds has a reported cell viability value.
// units = %; emit number, no label

The cases that follow already have their cell viability on record.
COc1cc2ncnc(Nc3cccc(Br)c3)c2cc1OC; 85.1
OC1=CC=C(C=C1)\C2=C\C(=O)C3=C(O2)C=C(O)C=C3O; 106
O=C(CCCCCCC(=O)Nc1ccccc1)NO; 77.1
CC[C@@]1(O)C[C@H](O[C@H]2C[C@H](N(C)C)[C@H](O[C@H]3C[C@H](O)[C@H](O[C@H]4CCC(=O)[C@H](C)O4)[C@H](C)O3)[C@H](C)O2)c2c(cc3c(c2O)C(=O)c2c(O)cccc2C3=O)[C@H]1C(=O)OC; 79.8
CCOC1=CC(=CC=C1C/2=N/[C@@](C)(C3=CC=C(Cl)C=C3)[C@](C)(N2C(=O)N4CCN(CC4)CC(=O)N5CCOCC5)C6=CC=C(Cl)C=C6)C(C)(C)C; 82.5
C[C@@H]1C[C@H]2[C@@H]3CC\C4=C\C(=O)\C=C/[C@]4(C)[C@@]3(Cl)[C@@H](O)C[C@]2(C)[C@@]1(OC(=O)C5=CC=CO5)C(=O)CCl; 28.4
Cc1c(C(=O)Nc2cccc(C(F)(F)F)c2)cc(-c2ccccc2)n1CCCN1CCOCC1; 99.2
CO[C@H]1C[C@@H]2CC[C@@H](C)[C@@](O)(O2)C(=O)C(=O)N2CCCC[C@H]2C(=O)O[C@H]([C@H](C)C[C@@H]2CC[C@@H](OCCO)[C@H](OC)C2)CC(=O)[C@H](C)/C=C(/C)[C@@H](O)[C@@H](OC)C(=O)[C@H](C)C[C@H](C)\C=C/C=C\C=C/1C; 47.5

Can you look up the measured cell viability of O=C(NNC(=O)c1ccc(CN[S+](=O)([O-])c2ccc(F)c(Cl)c2)cc1)c1ccccc1 for me? 84.6

Can you look up the measured cell viability of C[C@@H]1CC[C@@]2(OC1)OC1CC3C4CC=C5CC(O)CCC5(C)C4CCC3(C)C1[C@@H]2C (stereo partly specified) for me? 88.6

----------
System: NOMO1
Assay: cell viability relative to DMSO control; higher = less cytotoxic
Conditions: HPLM + 10% dialyzed FBS; 48 h; 1.71 µM
Labelling field: enter Condition met if recorded cell viability is less than 80%. Enter Condition not met if it equals or exceeds that cut-off.

Previously resolved entries follow.
Cc1[nH]c(/C=C2\C(=O)Nc3ccc([S+](=O)([O-])Cc4c(Cl)cccc4Cl)cc32)c(C)c1C(=O)N1CCC[C@@H]1CN1CCCC1; Condition not met
N#CC(=C(/N)Sc1ccccc1N)/C(C#N)=C(\N)Sc1ccccc1N; Condition not met
OCCCNc1cc(-c2ccnc(Nc3cccc(Cl)c3)n2)ccn1; Condition met

hey, is cell viability for CNCC(O)C(O)C(O)C(O)CO.O=C(O)c1ccc(-c2cc3cccnc3c(-c3ccc4nonc4c3)n2)cc1 lower than 80% or not? Condition not met

hey, is cell viability for O=c1[nH]cnc2c1ncn2[C@H]1CC[C@@H](CO)O1 lower than 80% or not? Condition not met

hey, is cell viability for OC(COC1=C2C(=O)\C=C(/OC2=CC=C1)C([O-])=O)COC3=C4C(=O)\C=C(/OC4=CC=C3)C([O-])=O lower than 80% or not? Condition not met

hey, is cell viability for CC(C)(C)NC(=O)[C@H]1CC[C@H]2[C@@H]3CC[C@H]4NC(=O)\C=C/[C@]4(C)[C@H]3CC[C@]12C lower than 80% or not? Condition not met

----------
Tested on: P12-Ichikawa
Assay: cell viability relative to DMSO control; higher = less cytotoxic
Details: RPMI 5 mM glucose + 10% dialyzed FBS; 48 h; 46.1 µM
Labelling field: enter t if recorded cell viability is less than 70%. Enter f if it equals or exceeds that cut-off.

Previously resolved entries follow.
CN[C@@H]1C[C@H]2O[C@@](C)([C@@H]1OC)n1c3ccccc3c3c4c(c5c6ccccc6n2c5c31)C(=O)N[C@H]4O; t
CNCC(O)C(O)C(O)C(O)CO.O=C(O)c1ccc(-c2cc3cccnc3c(-c3ccc4nonc4c3)n2)cc1; f

hey, is cell viability for O=[N+]([O-])c1cnc(Sc2nnc(O)n2-c2ccc3c(c2)OCCO3)s1 lower than 70% or not? t

hey, is cell viability for COc1cc(-c2nn(C3CCC(N4CCN(C(C)=O)CC4)CC3)c3ncnc(N)c23)ccc1NC(=O)c1cc2ccccc2n1C (configuration not stated) lower than 70% or not? f

hey, is cell viability for COC(=O)[C@@H](N)CCCNC(=N)N[N+](=O)[O-] lower than 70% or not? f

hey, is cell viability for CN(C)C[C@@H]1CC[N]2C=C(C3=C2C=CC=C3)C/4=C(/C(=O)NC4=O)C5=C[N](CCO1)C6=C5C=CC=C6 lower than 70% or not? t

hey, is cell viability for CC[C@@]1(O)C[C@H](O[C@H]2C[C@H](N(C)C)[C@H](O[C@H]3C[C@H](O)[C@H](O[C@H]4CCC(=O)[C@H](C)O4)[C@H](C)O3)[C@H](C)O2)c2c(cc3c(c2O)C(=O)c2c(O)cccc2C3=O)[C@H]1C(=O)OC lower than 70% or not? t

hey, is cell viability for CC(=O)[C@H]1CC[C@H]2[C@@H]3CCC4=CC(=O)CC[C@]4(C)[C@H]3CC[C@]12C lower than 70% or not? f

----------
Test system: SEM cells
Experiment: cell viability relative to DMSO control; higher = less cytotoxic
Conditions: RPMI 5 mM glucose + 10% FBS; 48 h; 0.19 µM
MEASUREMENT KIND: cell viability (%)
// units = %; emit number, no label

The cases that follow already have their cell viability on record.
CC(=O)[C@H]1CC[C@H]2[C@@H]3CCC4=CC(=O)CC[C@]4(C)[C@H]3CC[C@]12C; 116
CC1COC2=C3N1\C=C(C(O)=O)/C(=O)C3=CC(=C2N4CCN(C)CC4)F (centres undefined); 118
COC(=O)[C@@H](N)CCCNC(=N)N[N+](=O)[O-]; 102
COC[C@H]1OC(=O)C2=COC3=C2[C@@]1(C)\C4=C(\[C@@H]5CC[C@H](O)[C@@]5(C)C[C@H]4OC(C)=O)C3=O; 84.9
CC(C)(C)NC(=O)[C@H]1CC[C@H]2[C@@H]3CC[C@H]4NC(=O)\C=C/[C@]4(C)[C@H]3CC[C@]12C; 90.2

Can you look up the measured cell viability of C[S+]([O-])c1ccc(-c2nc(-c3ccc(F)cc3)c(-c3ccncc3)[nH]2)cc1 (centres undefined) for me? 79.3

Can you look up the measured cell viability of Cc1ccc(C(=O)c2cc(O)c(O)c([N+](=O)[O-])c2)cc1 for me? 101

Can you look up the measured cell viability of Cc1cc(O)c2c(c1)C(=O)c1cc(O)cc(O)c1C2=O for me? 128

Can you look up the measured cell viability of NC(=O)Nc1cc(-c2ccc(CN3CCOCC3)cc2)sc1C(N)=O for me? 20.2

Can you look up the measured cell viability of CN(C)CCN(Cc1ccc(Cl)cc1)c1ccccn1.Cl for me? 108

Can you look up the measured cell viability of COc1ccc(Nc2cc(-c3cnc(N)nc3)nc(N3CCOCC3)n2)cn1 for me? 99.5

Can you look up the measured cell viability of COc1cc(-c2nn(C3CCC(N4CCN(C(C)=O)CC4)CC3)c3ncnc(N)c23)ccc1NC(=O)c1cc2ccccc2n1C (centres undefined) for me? 140

Can you look up the measured cell viability of C#C[C@]1(O)CC[C@H]2[C@@H]3CCc4cc(OC)ccc4[C@H]3CC[C@@]21C for me? 125

Can you look up the measured cell viability of NC\1=N\C(=O)N(\C=C1)[C@H]\2[C@H](O)[C@H](O)C(=C2F)\CO for me? 118

Can you look up the measured cell viability of C#Cc1cccc(Nc2ncnc3cc(OC)c(OCCCCCCC(=O)NO)cc23)c1 for me? 46.3

Can you look up the measured cell viability of Cc1c(C(=O)Nc2cccc(C(F)(F)F)c2)cc(-c2ccccc2)n1CCCN1CCOCC1 for me? 101

Can you look up the measured cell viability of COC1(C[S+]([O-])c2ccccc2)CCN(CCc2c[nH]c3ccc(F)cc23)CC1 (centres undefined) for me? 113

Can you look up the measured cell viability of O=C1N\2CCC3=C([NH]C4=C3C=CC=C4)C2=N/C5=CC=CC=C15 for me? 126

Can you look up the measured cell viability of Cc1ncc([N+](=O)[O-])n1CCO for me? 109

----------
Tested on: NOMO1
Test: cell viability relative to DMSO control; higher = less cytotoxic
Conditions: HPLM + 10% dialyzed FBS; 48 h; 5.12 µM
MEASUREMENT KIND: cell viability
Write the figure, then the unit, nothing else.

The cases that follow already have their cell viability on record.
CCN1C[C@]2(OC(=O)c3ccccc3NC(C)=O)CC[C@H](OC)[C@@]34[C@@H]2C[C@@H]([C@@H]13)[C@@]1(O)C[C@H](OC)[C@H]2C[C@@H]4[C@]1(O)[C@H]2OC; 112%
O=C1NC(=O)/C(=C/c2cccc(C(F)(F)F)c2)S1; 92.8%
C=CCn1c(=O)c2cnc(Nc3ccc(N4CCN(C)CC4)cc3)nc2n1-c1cccc(C(C)(C)O)n1; 24.3%
COC1=CC=C(C=C1)C2CC(=N/N2C3=CC=C(C=C3)[S+](N)([O-])=O)\C4=CC=CC=C4 (stereo not drawn); 24.4%
Cc1cc(O)c2c(c1)C(=O)c1cc(O)cc(O)c1C2=O; 96.2%
OC1=CC=C(C=C1)\C2=C\C(=O)C3=C(O2)C=C(O)C=C3O; 98.1%

Can you look up the measured cell viability of NC\1=N\C(=O)N(\C=C1)[C@H]\2[C@H](O)[C@H](O)C(=C2F)\CO for me? 32.1%

Can you look up the measured cell viability of COc1ccnc(C[S+]([O-])c2nc3cc(OC(F)F)ccc3[nH]2)c1OC (stereo not drawn) for me? 134%
